Ref: patent EP0186452A2

Test: Acute toxicity, oral dosage to mice, LD50
Settings: mouse, in vivo, single dose suspended in 0.1% P-1570, ICR female mice, observed 21 days

Compound: CCCC[Si](C)(C)CCSCCNC(=O)n1cc(F)c(=O)[nH]c1=O [compound 3]
LD50 at 504 h: 1380 mg/kg
--
Compound: CC(C)[Si](C)(C)CCSCCCNC(=O)n1cc(F)c(=O)[nH]c1=O [compound 5]
LD50 at 504 h: 2250 mg/kg
--
Compound: CC(C)[Si](C)(C)CCCSCCCNC(=O)n1cc(F)c(=O)[nH]c1=O [compound 8]
LD50 at 504 h: 2120 mg/kg
--
Compound: CC(C)[Si](C)(C)CCSCCNC(=O)n1cc(F)c(=O)[nH]c1=O [Reference Example 2]
LD50 at 504 h: 1380 mg/kg
--
Compound: CC(C)[Si](C)(C)CCCSCCNC(=O)n1cc(F)c(=O)[nH]c1=O [compound 6]
LD50 at 504 h: 1820 mg/kg
--
Compound: CC(C)[Si](C)(C)CCSCCN [Example 2]
LD50 at 504 h: 1620 mg/kg
--
Compound: C[Si](C)(CCCSCCCNC(=O)n1cc(F)c(=O)[nH]c1=O)c1ccccc1 [compound 11]
LD50 at 504 h: 1800 mg/kg
--
Compound: CCCC[Si](C)(C)CCCSCCCN [Example 10]
LD50 at 504 h: > 1500 mg/kg
--
Compound: C[Si](CCSCCNC(=O)n1cc(F)c(=O)[nH]c1=O)(c1ccccc1)c1ccccc1 [compound 4]
LD50 at 504 h: 1400 mg/kg
--
Compound: CC(C)[Si](C)(C)CCCSCCCN [Example 8]
LD50 at 504 h: > 1500 mg/kg
--
Compound: C[Si](CCSCCN)(c1ccccc1)c1ccccc1 [Example 4]
LD50 at 504 h: > 1500 mg/kg
--
Compound: CC(C)(C)[Si](C)(C)CCCSCCCNC(=O)n1cc(F)c(=O)[nH]c1=O [compound 9]
LD50 at 504 h: 1800 mg/kg
--
Compound: CCCC[Si](C)(C)CCCSCCCNC(=O)n1cc(F)c(=O)[nH]c1=O [compound 10]
LD50 at 504 h: 1850 mg/kg
--
Compound: CCCC[Si](C)(C)CCSCCN [Example 3]
LD50 at 504 h: > 1500 mg/kg
--
Compound: CC(C)(C)[Si](C)(C)CCCSCCNC(=O)n1cc(F)c(=O)[nH]c1=O [compound 7]
LD50 at 504 h: 1380 mg/kg
--
Compound: CCCCCCCC[Si](C)(C)CCSCCNC(=O)n1cc(F)c(=O)[nH]c1=O [Reference Example 1]
LD50 at 504 h: 1580 mg/kg
--
Compound: C[Si](C)(CCCSCCCN)c1ccccc1 [Example 11]
LD50 at 504 h: > 1500 mg/kg
--
Compound: CC(C)(C)[Si](C)(C)CCCSCCN [Example 7]
LD50 at 504 h: > 1500 mg/kg
--
Compound: CC(C)(C)[Si](C)(C)CCCSCCCN [Example 9]
LD50 at 504 h: > 1500 mg/kg
--
Compound: CC(C)[Si](C)(C)CCCSCCN [Example 6]
LD50 at 504 h: 1500 mg/kg
--
Compound: CC(C)[Si](C)(C)CCSCCCN [Example 5]
LD50 at 504 h: 750 mg/kg
--
Compound: CCCCCCCC[Si](C)(C)CCSCCN [Example 1]
LD50 at 504 h: > 1500 mg/kg
